biological target: T1, biotinylated goat anti-human kappa light chain; assay: ELISA; positive control; note: test concentration or dose not given here
T1 construct: Positive control of the ELISA
Measured property: optical density (OD)
Write the value in OD as a bare number.

Use the examples below as a reference point.
>  <Binder>
374_F11 (antibody, V domains shown, VH/VL only) VH: EVQLLESGGGLVQPGGSLRLSCAASGFTFDSYSMNWVRQAPGKGLEWVSNINYNGGYTGYADSVKGRFTISRDNSKNTLYLQMNSLRAEDTAVYYCARSANWHDTALDYWGQGTLVTVSS VL: DIQMTQSPSSLSASVGDRVTITCRASQSILSYLNWYQQKPGKAPKLLIYAVTSLASGVPSRFSGSGSGTDFTLTISSLQPEDFATYYCQQSYESPLTFGGGTKVEIK

>  <optical density / OD>
3.15

$$$$
>  <Binder>
373_C09 (antibody, V domains shown, VH/VL only) VH: EVQLLESGGGLVQPGGSLRLSCAASGFTFDSYSMNWVRQAPGKGLEWVAGINYNSGYKSYADSVKGRFTISRDNSKNTLYLQMNSLRAEDTAVYYCARSATWHDTHLDYWGQGTLVTVSS VL: DIQMTQSPSSLSASVGDRVTITCRASQSILTYLNWYQQKPGKAPKLVIYAATSRASGVPSRFSGSGSGTDFTLTISSLQPEDFATYYCQQSYELPLTFGGGTKVEIK

>  <optical density / OD>
3.22

$$$$
>  <Binder>
370_B05 (antibody, V domains shown, VH/VL only) VH: EVQLLESGGGLVQPGGSLRLSCAASGFTFSSYGMNWVRQAPGKGLEWVASINYNGGYTSYADSVKGRFTISRDNSKNTLYLQMNSLRAEDTAVYYCARSATWHDTHLDYWGQGTLVTVSS VL: DIQMTQSPSSLSASVGDRVTITCRASQSILTYVNWYQQKPGKAPKLVIYAATSRASGVPSRFSGSGSGTDFTLTISSLQPEDFATYYCQQSYENPLTFGGGTKVEIK

>  <optical density / OD>
3.49

$$$$
>  <Binder>
374_E09 (antibody, V domains shown, VH/VL only) VH: EVQLLESGGGLVQPGGSLRLSCAASGFTFSDYSMNWVRQAPGKGLEWVSGINYNGGYKGYADSVKGRFTISRDNSKNTLYLQMNSLRAEDTAVYYCARSATWHDTHLDYWGQGTLVTVSS VL: DIQMTQSPSSLSASVGDRVTITCRASQSIVTYLNWYQQKPGKAPKLVIYAATSRASGVPSRFSGSGSGTDFTLTISSLQPEDFATYYCQQSYDSPLTFGGGTKVEIK

>  <optical density / OD>
3.16

$$$$

Pending binder:
stdin: Which optical density is listed for 375_A05 (antibody, V domains shown, VH/VL only) VH: EVQLLESGGGLVQPGGSLRLSCAASGFTFSSYGMNWVRQAPGKGLEWVANINYNGGYKGYADSVKGRFTISRDNSKNTLYLQMNSLRAEDTAVYYCARSANWHDTALDYWGQGTLVTVSS VL: DIQMTQSPSSLSASVGDRVTITCRASQSILSYLNWYQQKPGKAPKLLIYAATSRASGVPSRFSGSGSGTDFTLTISSLQPEDFATYYCQQSYDLPLTFGGGTKVEIK ?
stdout: 3.12
